Biological target: UniProt P47820
Sequence (P47820 whole entry): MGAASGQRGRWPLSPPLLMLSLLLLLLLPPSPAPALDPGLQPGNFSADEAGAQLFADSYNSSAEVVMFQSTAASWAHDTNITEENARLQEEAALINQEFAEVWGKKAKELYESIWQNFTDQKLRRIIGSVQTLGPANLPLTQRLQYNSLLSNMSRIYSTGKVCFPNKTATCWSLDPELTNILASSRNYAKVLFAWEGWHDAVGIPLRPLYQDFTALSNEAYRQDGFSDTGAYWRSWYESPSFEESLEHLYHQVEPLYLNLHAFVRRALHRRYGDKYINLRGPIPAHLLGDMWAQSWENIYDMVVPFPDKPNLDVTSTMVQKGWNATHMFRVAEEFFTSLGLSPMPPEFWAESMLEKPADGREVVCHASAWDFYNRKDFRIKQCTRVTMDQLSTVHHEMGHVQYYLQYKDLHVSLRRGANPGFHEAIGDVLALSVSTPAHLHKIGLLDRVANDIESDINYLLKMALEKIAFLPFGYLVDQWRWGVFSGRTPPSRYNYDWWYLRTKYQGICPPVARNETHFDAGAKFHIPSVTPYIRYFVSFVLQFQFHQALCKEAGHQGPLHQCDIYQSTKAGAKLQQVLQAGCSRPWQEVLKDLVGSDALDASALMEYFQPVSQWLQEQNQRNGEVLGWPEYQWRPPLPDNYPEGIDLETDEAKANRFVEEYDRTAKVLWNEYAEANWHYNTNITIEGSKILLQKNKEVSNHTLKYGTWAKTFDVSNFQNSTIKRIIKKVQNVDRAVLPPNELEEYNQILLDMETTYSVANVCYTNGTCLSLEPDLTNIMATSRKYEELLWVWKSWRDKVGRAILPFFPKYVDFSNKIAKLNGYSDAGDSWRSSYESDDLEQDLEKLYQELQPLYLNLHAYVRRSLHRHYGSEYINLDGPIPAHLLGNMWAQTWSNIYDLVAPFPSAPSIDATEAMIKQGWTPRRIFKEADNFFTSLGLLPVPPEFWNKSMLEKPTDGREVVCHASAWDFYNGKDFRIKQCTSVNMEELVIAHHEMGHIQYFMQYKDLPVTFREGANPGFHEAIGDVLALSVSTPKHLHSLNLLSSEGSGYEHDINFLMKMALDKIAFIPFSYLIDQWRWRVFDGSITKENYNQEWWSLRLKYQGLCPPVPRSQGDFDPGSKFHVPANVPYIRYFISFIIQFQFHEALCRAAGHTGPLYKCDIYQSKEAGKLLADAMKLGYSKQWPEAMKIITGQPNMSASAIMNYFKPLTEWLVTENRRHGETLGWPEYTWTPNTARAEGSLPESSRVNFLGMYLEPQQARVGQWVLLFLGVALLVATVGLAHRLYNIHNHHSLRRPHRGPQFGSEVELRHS
Assay: Inhibition of Angiotensin I converting enzyme in rat
quantity-name: IC50 (nM)
Enter your answer as a number in nM; do not include the unit.

INPUT: Please indicate IC50 recorded for O=C(O)CN1C(=O)[C@@H](NC(CCc2ccccc2)C(=O)O)CS(=O)(=O)c2ccccc21 (stereo partly drawn)
OUTPUT: 2900

INPUT: Please indicate IC50 recorded for CCOC(=O)CN1C(=O)[C@@H](NC(CCc2ccccc2)C(=O)OCC)CCc2ccccc21 (stereo partly drawn)
OUTPUT: 430

INPUT: Please indicate IC50 recorded for O=C(O)CN1C(=O)[C@@H](NC(CCc2ccccc2)C(=O)O)CCc2ccccc21 (stereo partly drawn)
OUTPUT: 1.7
